Test system: Pyricularia oryzae
Type: in vivo
Reported conditions: individual active compound, 4 ppm in the spray liquor; protective, inoculated next day, assessed after 6 days
Efficacy in % of the untreated control reference
Write the value in % as a bare number.

# annotated cases, reported Efficacy in % of the untreated control shown
compound=CC1CCN(c2c(-c3c(F)cccc3Cl)c(Cl)nc3ncnn23)CC1 measurement_name="Efficacy in % of the untreated control" val=13
compound=CC1CCN(c2c(-c3c(F)cc(F)cc3F)c(Cl)nc3ncnn23)CC1 measurement_name="Efficacy in % of the untreated control" val=28
compound=C[C@H](Nc1c(-c2c(F)cc(F)cc2F)c(Cl)nc2ncnn12)C(F)(F)F measurement_name="Efficacy in % of the untreated control" val=57

Input C=CC1(C)OC(=O)N(c2cc(Cl)cc(Cl)c2)C1=O (stereo not shown) . Output Efficacy in % of the untreated control: 0

* * *

System: Pyricularia oryzae
Type: in vivo
Reported conditions: individual active compound, 1 ppm in the spray liquor; protective, inoculated next day, assessed after 6 days
Measurement name: Efficacy in % of the untreated control (%)
Write the value in % as a bare number.

# annotated cases, reported Efficacy in % of the untreated control shown
compound="CC1CCN(c2c(-c3c(F)cccc3Cl)c(Cl)nc3ncnn23)CC1 [A]" units_of_measure=% val=0
compound="C=CC1(C)OC(=O)N(c2cc(Cl)cc(Cl)c2)C1=O (stereo not shown) [compound II]" units_of_measure=% val=0
compound="CC1CCN(c2c(-c3c(F)cc(F)cc3F)c(Cl)nc3ncnn23)CC1 [compound I]" units_of_measure=% val=13

Alright, here's another compound for you.
Input C[C@H](Nc1c(-c2c(F)cc(F)cc2F)c(Cl)nc2ncnn12)C(F)(F)F [B] . Output Efficacy in % of the untreated control: 13
